FYI, the data here is from patent US20170022281A1.

Subject Of Test: T1, cyno PRLR (Biacore antigen) (cyno, UniProt A0A2K5WXK1 25-234)
T1 construct: also called cyPRLR
T1 sequence: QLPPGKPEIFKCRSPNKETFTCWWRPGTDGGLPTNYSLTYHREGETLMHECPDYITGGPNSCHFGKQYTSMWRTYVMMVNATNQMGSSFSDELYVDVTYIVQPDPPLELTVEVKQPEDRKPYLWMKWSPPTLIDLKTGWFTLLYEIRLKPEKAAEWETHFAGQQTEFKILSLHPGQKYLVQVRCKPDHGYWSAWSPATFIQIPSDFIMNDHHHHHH
Test Details: SPR Biacore
Measured Quantity: Kd (nM)
One number for each entry, in nM.

Working through the 3 binders below one at a time, give Kd for each.
1. chAb5 (antibody, human IgG1, kappa, V domains shown, chimeric, murine variable and human G1/kappa constant regions) VH: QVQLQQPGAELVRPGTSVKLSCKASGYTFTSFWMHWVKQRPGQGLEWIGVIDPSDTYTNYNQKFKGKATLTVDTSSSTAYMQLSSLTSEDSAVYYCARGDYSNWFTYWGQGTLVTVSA VL: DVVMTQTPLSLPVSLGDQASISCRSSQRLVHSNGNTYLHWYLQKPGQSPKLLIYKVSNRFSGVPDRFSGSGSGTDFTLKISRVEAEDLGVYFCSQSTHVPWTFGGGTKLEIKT
2. chAb6 (antibody, human IgG1, kappa, V domains shown, chimeric, murine variable and human G1/kappa constant regions) VH: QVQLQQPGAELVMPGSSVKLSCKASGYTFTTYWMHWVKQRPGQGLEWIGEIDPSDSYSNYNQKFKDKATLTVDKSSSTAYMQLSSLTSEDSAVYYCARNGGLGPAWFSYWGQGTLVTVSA VL: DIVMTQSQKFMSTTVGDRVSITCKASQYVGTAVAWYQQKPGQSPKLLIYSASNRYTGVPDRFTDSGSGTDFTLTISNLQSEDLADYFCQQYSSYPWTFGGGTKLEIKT
3. LFA102 (antibody, human IgG1, kappa, V domains shown, humanized IgG1 kappa comparator (WO 2008022295)) VH: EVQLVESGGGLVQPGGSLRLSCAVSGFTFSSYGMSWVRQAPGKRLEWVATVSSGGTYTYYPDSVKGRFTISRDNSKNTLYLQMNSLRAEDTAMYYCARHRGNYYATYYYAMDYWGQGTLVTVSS VL: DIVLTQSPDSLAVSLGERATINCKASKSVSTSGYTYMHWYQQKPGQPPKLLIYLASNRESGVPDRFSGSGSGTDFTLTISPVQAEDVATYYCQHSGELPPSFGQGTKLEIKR

Ans.
[0.671, 0.794, 11]
